// provenance: paper PMC9482650

Biological target: T1, SNTA1, Q13424
T1 sequence (Q13424 82-180, limits assumed, looked up): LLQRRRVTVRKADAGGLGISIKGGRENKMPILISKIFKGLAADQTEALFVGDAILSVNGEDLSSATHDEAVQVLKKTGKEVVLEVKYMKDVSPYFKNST
Assay: holdup assay
Design: key: below the threshold = too weak to quantify, mostly under pKd 3.1 to 4
Settings: plain residues with an end cap or a label only (N-terminal biotin on a linker: ado-ado)
Recorded endpoint: pKd

// known answers, use as guide
# Binder, pKd
measured = [
    ("GQNMTVSVVI [PRLHR, P49683]", 3.89),
    ("NNMAFETTHF [SLC5A12, Q1EHB4]", "below the threshold"),
    ("EPAKETTTNV [SLC2A3, P11169]", 4.09),
    ("YAEKRMLTEV [KCNA6, P17658]", "below the threshold"),
    ("NKSEPFLTWL [WWTR1, Q9GZV5]", "below the threshold"),
]

The recorded pKd for entry PGKKPEDSRV [SLCO2B1, O94956] equals 3.97

The recorded pKd for entry KSRPENGTVC [TMEM178B, H3BS89] equals below the threshold

The recorded pKd for entry FVFESRKEIL [TBPL1, P62380] equals below the threshold
